- ASSAY NOTES: yeast display, Sf9 membrane polyspecificity reagent, FACS + sequencing; frameworks hold sequencing errors
MEASURE NAME: polyreactivity (PSR sort gate)

Use these answered entries as a reference point.
BIOPOLYMER SEQUENCE | polyreactivity (PSR sort gate)
QVQLVESGGGLVQAGGSLRLSCAASGITFRWYAMGWYRQAPGKERELVASISSGGITTYADSVKGRFTISRDNAKNTVYLQMNSLKPEDTAVDYCNAVGHTSIRRALDILDYWGQGTQVTVSS | high polyreactivity
QVQLVESGGGLVHAGGSLRLSCAAYGSIFSKYVMGGSREAPGKERELVAAISWSGTRTYYADSVMGRFTISRDNAKNTVYLQMNSLKPEDTAVYYCAARRLYSGHQYDYWGQGTQVTVSS | high polyreactivity
QVQLVESGGGLVQAGGSLRLSCAASGSTSKVYAMGWSRQAPGKERELVAAITFSGGSTYADSVKGRFTISRDNAKNTVYLQMNSLKPEDTAVYYCAVEVPYSWWWLVDYWGQGTLVTVSS | high polyreactivity
QVQLVESGGGLVQAGGSLRLSCAASGSTFNKNAMGWYRQAPGNERELVAVISRSGGSTHYADSVKGRFTISRDNAKNTVYLQMNSLKPEDTAVYYCATPFSYRRRTSASPYLYDYWGQGTQVTVSS | high polyreactivity

Query: Record request: polyreactivity (PSR sort gate) value, item `EVQLVESGGGLVQAGGSLRLSCAASGSTFNWNDMGWYRQAPGKEREFVASISTTGSTNYADSVKGRFTISRDNAKNTVYLQMNSLKPEDTAVYYCNAEYGWYYWYGYWFYEGDYWGQGTQVTVSS`
Reply: high polyreactivity

----------
- ASSAY NOTES: yeast display, Sf9 membrane polyspecificity reagent, FACS + sequencing; frameworks hold sequencing errors
MEASURE NAME: polyreactivity (PSR sort gate)

Use these answered entries as a reference point.
BIOPOLYMER SEQUENCE | MEASURE NAME | VALUE MEASURED
QVQLVESGGGLVQAGGILRLSCAASGFTFWYYVMGWYRQAPGKERELVAAITSSGDSTYYADSVKGRFTISRDNAKNTVYLQMNSLKPEDTAVYYCAAQRYPFERVYWGQGTQVTVSS | polyreactivity (PSR sort gate) | high polyreactivity
QVQLVESGGGLVQAGGSLRLSCAASGRTIPFYAMGWYRQAHGKERELVDAIDSGGNTYADSVKGRFTISRDNAKNTVYLQMISLKPEDTAVYYCAVDGGEFSSYGYWGQGTQVTVSS | polyreactivity (PSR sort gate) | low polyreactivity
QVQLVESGGGLVQAGGSLRLSCAASGLTFGDYTMGWYRQAPGKERELVAAITWSGASTYYADSVKGRFTISRDNAKNTVYLQMHSLKPEDTAVYYCAAERTPSYRAYDYWGQGTKVTVSS | polyreactivity (PSR sort gate) | low polyreactivity
QVQLVESGGGLVQAGGSLRLSCAASGSIFRGYAMGWYRQATGKERELVATIDSSAGSTYYADSVKGRFTISRDNAKNTVYLQMHSLKPEDTAVYYCATDPYGYYYSGFDYWGQGTQVTVSS | polyreactivity (PSR sort gate) | low polyreactivity
QVQLVESGGGLVQAGGSLRISCAASGYIFFGNAMGWYRQAPGKERELVAAIRGRGTSTYYADSVKGRFTISRDNAKNTVYLQMNSLKPEDTAVYYFAADVVRSNFYGTFLYDYDYWGQCTQVTVSS | polyreactivity (PSR sort gate) | low polyreactivity
QVQLVESGGGLVQAGGSLRLSCAASGFTFITNAMGWYRQAPGNERELVASISIGGSTNYADSVKGRFTISRDNAKNTVYLQMTSLKPEDTAVYYCAARVYRRLFLPGRYGRPLGYWGQGTQVTVSS | polyreactivity (PSR sort gate) | high polyreactivity

Query: Record request: polyreactivity (PSR sort gate) value, item `QVQLEESGGGLVQAGGSLRLSCAASGIIFTVYAMGWYRQATGTERELVAAITSSGGRTYYADSVKGRFTISRDNAKNTVYLQMNSLKPEDTAVYYCAARLPGYVRKYDYWGQGTQVTVSS`
Reply: high polyreactivity

Query: Repeat with `QVQHVESGGGLVQAGGRLRLSCAASGSTFDYYVMGWYRQAPGKEREMVAAISQNAGSTYYADSVKGRFTISRDNAKNTVYLQMNSLKPEDTAVYYCAAPDYRNGVRYPLDYWGQGTQVTVSS`
Reply: low polyreactivity

Query: Repeat with `QVQLVESGGRLVQAGGSLRLSCAASGFIFKLYGMGWYRQAPGKESEMVAAINTSGGRTYYADSVKGRFTISLDNAKNTVYLQMNSLKPEDTAVYYCNTYYSFYGGGYDHWVQGTQVTVSS`
Reply: high polyreactivity

Query: Repeat with `QVQLVESGGGLVQAGGSLRLSCAASRRTYWYNAMGWYRQSPGKERELVAAISRAGRTYYADSVKGRFTISRDNAKNTVYIQMNSLKPEDTAVYYCNVVLFGDSGNLQYYYWGQGTQVTVSS`
Reply: high polyreactivity

Query: Repeat with `QVQLVESGAGLVQAGGSLRLSCAAYGFIFRTNAMGWYRQAPGKERELVAAISNSGGRTYYADSVKGRFTLSRDNSKNTVYLQMNSLKPEDTAVYYCAAVLWYDIYYGGDYWGQGTQVTVSS`
Reply: high polyreactivity

----------
- ASSAY NOTES: yeast display, Sf9 membrane polyspecificity reagent, FACS + sequencing; frameworks hold sequencing errors
MEASURE NAME: polyreactivity (PSR sort gate)

Use these answered entries as a reference point.
BIOPOLYMER SEQUENCE | MEASURE NAME | VALUE MEASURED
QVQLVESGGGLVQAGGSLRLSCAASGNIFQRYAMGWYRQAPGKERELVAAISGNGGNTFYADSVKGRFTISRDNAKNSVYLQMNSLKPEDTAVYYCNTVYVVYGYDYWGQGTQVTVSS | polyreactivity (PSR sort gate) | high polyreactivity
QVQPVESGGGLVHAGGSLRLSCAASGSIFWYNAMGWYRQAPGQEWELVAAINWSGGSTFYADSVKGRFTISRDNEKNTVYLQMNSLNPEDTAVYYCAADDWSTGYDFWGQGTQETVSS | polyreactivity (PSR sort gate) | high polyreactivity
QVQLVESGGGLVQAGGSLRLSCAASGSTFYYYAMGWYRQAPGKERELVAAITKSRGSTYYADSVKGRFTISRDNAKNTVYLQMNSLKPEDTAVYDCAAYLRSGYKFDYWGQGTQGTVSS | polyreactivity (PSR sort gate) | low polyreactivity
QVQLVESGGGLVQAGGSLRLSCAASGRIFSHNVMGWYRQAPGKERELVAAISGRDGSTYYADSVKGRFTISRDNAKNTVYLQMNSLKPEDTAVYYCATDTSNVEGDYWGQGTQVTVSS | polyreactivity (PSR sort gate) | low polyreactivity
QVQLVESGGGLVQAGGSLRLSCAASGIIFFRNPMGWYRQAPGKERELVAAISSGGSTYYADSVKGRFTISRDNAKNTVYLQMNSLKPEDTAVYYCNQVGPLYYASYDYWGQGTQGTVSS | polyreactivity (PSR sort gate) | low polyreactivity

Query: Record request: polyreactivity (PSR sort gate) value, item `QVQLVESGGGLVQAGGSLRLSCAASGFNIYYYTMGWYRQAPGKERELVAAISKSGGNTYYADSVKGRFTISRDNAKNTVYLQMNSLKPEDTAVYYCAASRYNTVTYYYWGQGTQVTVSS`
Reply: high polyreactivity

Query: Repeat with `QVQLVESGGGLVQAGGSLRLSCAASGFTIVYYAMGWYRQAPGKERELVAAITWSGGNTYYADSVKWRITISRDNAKNTVYLHMNSLKPEDNAVYYCAASPRGRRTTVGYPRRPFDYWGLGTQVTVSS`
Reply: high polyreactivity

Query: Repeat with `QVQLVESGGGLVQAGGSLRLSSAASGSTFRRNAMGWYRQAPGKQRELVAAITWRGTSTYYADSVKGRFTISRDNAKNTVYLQMNSLKPEDTAVDYCAAPWVVRRTAYDYWGQGTQVTVSS`
Reply: high polyreactivity

Query: Repeat with `QVQLVESGGGLVQAGGSLRLSCAASGSTFPPNTMGWYRQAPGKERELVAAITQRGGNTYYADSVKGRFTISRDNAKNTVYLQMNSLKPEDTAVYYCATRYRYKGYYGQYEYWGQGTQVTVSS`
Reply: high polyreactivity

Query: Repeat with `QVQLVESGGGLVQAGGSLRLSCAASGSTFYKYAMGWYRQAPGKERELVASISRSGGSTSYADSVKGRFTISRDYAKNTVYLQMNSLKPEDTAVYYCAATWRQHPGSMGYWGQGTQVTVSS`
Reply: high polyreactivity

Query: Repeat with `QVQLVDSGGGLVQAVGSLRLSCAASGITFDEYAMGWYRQAPGKERELVAAISVSGGDTYYADSVKGRFTISRDNAKNNVYLQMNSLKPEDTAVYYCNARWGTPYYIQDFDYWGLGTQVTVSS`
Reply: low polyreactivity

----------
- ASSAY NOTES: yeast display, Sf9 membrane polyspecificity reagent, FACS + sequencing; frameworks hold sequencing errors
MEASURE NAME: polyreactivity (PSR sort gate)

Use these answered entries as a reference point.
BIOPOLYMER SEQUENCE | polyreactivity (PSR sort gate)
QVQLVESGGGLVQAGGSLRLSCAASGIIFDWYAMGWYRQAPGKERELVAAISYSGGTTYYADSVKGRFTISRDNAKNTVYFQMNSLTPEDTAVYYCAARYEGAAANYVEYGYWGLGTQVTVSS | low polyreactivity
LVQLVESGGGLLQAGGSPRLSCAASGFNFRGYAMGWYRQAPRKERELVAAINSGGSTNYADSVKGRFTISRDNAKNTVYLQMNSLNPEDTAVSYCAARVKTSYRYLRTYNYWGQGTQVTVSS | high polyreactivity
QVQLVESGGGLVQAGVSLRLSCAASGFTFYPYAMGWYRQAPGKERELVAAISYSGGRTYADSVKGRFTISRDNAKNTVYLQMNSLKPEDTAVYYCAADWTVLVYPYYHEYDYWGQGTQVTVSS | low polyreactivity
QVQLVESGGGLVQAGGSLRLSCAASGRTFRINAMGWYRQAPGKERELVAAISFRTDSTYYADSVKGRFTISRDNAKNTVYLQMNSLKPEDTAVYYCDARGLQVRTYDYWGQGTQVTVSS | high polyreactivity

Next, consider the following sequence.
Query: Record request: polyreactivity (PSR sort gate) value, item `QVQLVESGVGLVQAGGSLRLICAASGRTFAYYAMGWYRQAPGKERELVAAISSGGRTNYADSVKGRFTISRDNAKNTVYLQMNSLKPEDTAVYYCARKASYQIYNGQYGGFGYGYWGQGTQVTVSS`
Reply: high polyreactivity
